- Measured On: KDR endogenously expressed on human umbilical vein endothelial cells (HUVEC) (human, UniProt P35968 20-1356)
- Sequence (P35968 20-1356): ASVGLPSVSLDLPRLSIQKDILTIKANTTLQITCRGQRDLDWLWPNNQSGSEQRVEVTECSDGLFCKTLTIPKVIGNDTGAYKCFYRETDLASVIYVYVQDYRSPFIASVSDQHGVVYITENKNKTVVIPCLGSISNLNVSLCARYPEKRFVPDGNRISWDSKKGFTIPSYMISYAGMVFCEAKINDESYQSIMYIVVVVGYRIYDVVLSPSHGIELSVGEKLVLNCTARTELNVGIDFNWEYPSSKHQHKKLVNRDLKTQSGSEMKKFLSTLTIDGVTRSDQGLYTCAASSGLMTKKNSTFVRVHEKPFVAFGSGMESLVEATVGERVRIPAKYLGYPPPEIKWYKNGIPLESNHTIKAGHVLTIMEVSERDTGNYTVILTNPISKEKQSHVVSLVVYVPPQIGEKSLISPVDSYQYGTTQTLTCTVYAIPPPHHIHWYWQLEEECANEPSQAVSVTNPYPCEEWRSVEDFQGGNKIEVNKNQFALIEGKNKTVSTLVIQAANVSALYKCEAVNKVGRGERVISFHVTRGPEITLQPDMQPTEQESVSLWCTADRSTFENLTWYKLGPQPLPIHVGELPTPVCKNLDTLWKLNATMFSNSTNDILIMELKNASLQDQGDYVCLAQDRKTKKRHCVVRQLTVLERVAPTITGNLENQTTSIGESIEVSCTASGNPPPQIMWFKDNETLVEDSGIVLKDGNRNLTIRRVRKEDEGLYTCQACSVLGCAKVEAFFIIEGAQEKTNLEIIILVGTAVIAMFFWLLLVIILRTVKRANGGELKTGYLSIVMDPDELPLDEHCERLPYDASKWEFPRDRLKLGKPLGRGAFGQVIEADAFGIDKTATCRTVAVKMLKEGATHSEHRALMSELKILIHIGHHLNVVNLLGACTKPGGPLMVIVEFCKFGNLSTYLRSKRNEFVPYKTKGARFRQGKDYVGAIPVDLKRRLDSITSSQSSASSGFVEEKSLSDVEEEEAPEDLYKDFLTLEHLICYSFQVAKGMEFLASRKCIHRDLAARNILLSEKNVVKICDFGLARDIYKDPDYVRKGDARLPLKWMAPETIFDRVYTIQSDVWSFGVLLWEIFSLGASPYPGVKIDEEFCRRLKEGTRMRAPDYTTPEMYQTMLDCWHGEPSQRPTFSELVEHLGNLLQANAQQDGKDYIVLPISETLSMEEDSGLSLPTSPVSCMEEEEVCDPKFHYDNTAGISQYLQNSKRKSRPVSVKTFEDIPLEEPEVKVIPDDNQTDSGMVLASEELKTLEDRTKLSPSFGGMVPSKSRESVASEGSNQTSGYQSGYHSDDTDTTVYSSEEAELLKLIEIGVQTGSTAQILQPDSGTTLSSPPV
- Experiment Notes: cell-based or functional assay; also: test concentration or dose not given here
Measured Endpoint: VEGF-E-mediated Survival % Inhibition (n = 1) (%)

>>> reported("33E1 (antibody, V domains shown, Fully human mAb from XenoMouse hybridoma, tested as hybridoma supernatant) VH: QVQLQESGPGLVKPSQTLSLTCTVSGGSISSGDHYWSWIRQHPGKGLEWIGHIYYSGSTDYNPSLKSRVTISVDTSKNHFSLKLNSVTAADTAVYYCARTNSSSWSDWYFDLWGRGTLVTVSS VL: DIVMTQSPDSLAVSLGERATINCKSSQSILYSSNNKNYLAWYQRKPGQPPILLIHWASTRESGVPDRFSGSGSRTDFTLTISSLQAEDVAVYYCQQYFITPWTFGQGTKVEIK")
66
>>> reported("21H6 (antibody, V domains shown, Fully human mAb from XenoMouse hybridoma, tested as hybridoma supernatant) VH: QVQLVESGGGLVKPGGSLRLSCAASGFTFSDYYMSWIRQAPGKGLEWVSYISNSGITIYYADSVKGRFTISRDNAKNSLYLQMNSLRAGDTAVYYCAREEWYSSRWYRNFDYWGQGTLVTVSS VL: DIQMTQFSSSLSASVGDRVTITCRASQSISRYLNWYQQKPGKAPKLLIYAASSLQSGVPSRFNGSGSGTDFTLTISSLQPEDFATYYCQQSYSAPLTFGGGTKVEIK")
56
>>> reported("29F7 (antibody, V domains shown, Fully human mAb from XenoMouse hybridoma, tested as hybridoma supernatant) VH: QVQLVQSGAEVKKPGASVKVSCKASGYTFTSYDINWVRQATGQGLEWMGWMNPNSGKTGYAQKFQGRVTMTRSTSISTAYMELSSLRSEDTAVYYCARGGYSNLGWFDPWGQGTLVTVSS VL: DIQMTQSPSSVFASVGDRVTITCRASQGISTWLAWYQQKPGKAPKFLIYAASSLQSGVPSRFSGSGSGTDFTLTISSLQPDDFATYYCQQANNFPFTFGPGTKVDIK")
15
>>> reported("33C3 (antibody, V domains shown, Fully human mAb from XenoMouse hybridoma, tested as hybridoma supernatant) VH: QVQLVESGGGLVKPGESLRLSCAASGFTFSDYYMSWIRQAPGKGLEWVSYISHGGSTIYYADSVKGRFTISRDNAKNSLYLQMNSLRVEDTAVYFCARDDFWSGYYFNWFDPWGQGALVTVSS VL: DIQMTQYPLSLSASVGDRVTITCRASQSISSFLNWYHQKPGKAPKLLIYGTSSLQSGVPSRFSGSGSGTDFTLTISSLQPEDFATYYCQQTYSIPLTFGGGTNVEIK")
78
>>> reported("33B1 (antibody, V domains shown, Fully human mAb from XenoMouse hybridoma, tested as hybridoma supernatant) VH: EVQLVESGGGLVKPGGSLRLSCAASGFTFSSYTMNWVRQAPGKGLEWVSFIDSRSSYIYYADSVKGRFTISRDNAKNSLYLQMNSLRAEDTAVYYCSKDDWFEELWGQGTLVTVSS VL: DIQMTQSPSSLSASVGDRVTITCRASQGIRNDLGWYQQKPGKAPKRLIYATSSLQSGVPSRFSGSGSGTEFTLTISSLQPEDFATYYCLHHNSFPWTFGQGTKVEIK")
66
